Cited source: patent US20240208905A1

Assay: Pharmacokinetic experiment after intragastric administration in mice (LC-MS/MS of ZONK1901-1 and ZONK1901-2)
Conditions: metabolite ZONK1901-1 (M1) in mouse blood after intragastric administration of the group's compound
endpointLabel: Cmax (nM)
Express it in nM; write the number only.

Request: // Cmax lookup, key: CNCCC(=O)ON=C1C=C2CC[C@H]3[C@H](CC[C@]4(C)C(c5cccnc5)=CC[C@@H]34)[C@@]2(C)CC1
Result: 679

* * *

Assay: Pharmacokinetic experiment after intragastric administration in mice (LC-MS/MS of ZONK1901-1 and ZONK1901-2)
Conditions: metabolite ZONK1901-2 (M2) in mouse blood after intragastric administration of the group's compound
endpointLabel: Cmax (nM)
Express it in nM; write the number only.

Request: // Cmax lookup, key: CNCCC(=O)ON=C1C=C2CC[C@H]3[C@H](CC[C@]4(C)C(c5cccnc5)=CC[C@@H]34)[C@@]2(C)CC1 [Example 6]
Result: 421

* * *

degree of inflammatory cell infiltration: number of rabbits graded ++ reference
Test system: experimental rabbit ear acne
Assay: Pharmacodynamics evaluation of acne: coal tar rabbit ear acne model, HE pathology
Assay type: in vivo, Japanese big-ear white rabbits
Conditions: 0.01% ointment, 1 g per animal, once a day, two weeks; 10 rabbits per group
Would you mind answering with just the numeric figure?

Below, 3 molecules whose answers are already recorded.
| cpdSmiles | dataValue |
| --- | --- |
| CN1CCC(C(=O)ON=C2C=C3CC[C@H]4[C@H](CC[C@]5(C)C(c6cccnc6)=CC[C@@H]45)[C@@]3(C)CC2)CC1 | 3 |
| C[C@]12CCC(=NOC(=O)C3CCNCC3)C=C1CC[C@H]1[C@@H]2CC[C@]2(C)C(c3cccnc3)=CC[C@@H]12 | 3 |
| C[C@]12CCC(=NOC(=O)OCCN3CCOCC3)C=C1CC[C@H]1[C@@H]2CC[C@]2(C)C(c3cccnc3)=CC[C@@H]12 | 4 |

Request: // degree of inflammatory cell infiltration: number of rabbits graded ++ lookup, key: CC(=O)ON=C1C=C2CC[C@H]3[C@H](CC[C@]4(C)C(c5cccnc5)=CC[C@@H]34)[C@@]2(C)CC1
Result: 3

Request: // degree of inflammatory cell infiltration: number of rabbits graded ++ lookup, key: C[C@]12CCC(=NOC(=O)N(CCCl)CCCl)C=C1CC[C@H]1[C@@H]2CC[C@]2(C)C(c3cccnc3)=CC[C@@H]12
Result: 4

* * *

Tested on: experimental rabbit ear acne
Assay: Pharmacodynamics evaluation of acne: coal tar rabbit ear acne model, HE pathology
Assay type: in vivo, Japanese big-ear white rabbits
Conditions: 0.01% ointment, 1 g per animal, once a day, two weeks; 10 rabbits per group
degree of inflammatory cell infiltration: number of rabbits graded ++ reference
Would you mind answering with just the numeric figure?

| cpdSmiles | dataValue |
| --- | --- |
| C[C@]12CCC(=NOC(=O)N3CCC(N4CCCCC4)CC3)C=C1CC[C@H]1[C@@H]2CC[C@]2(C)C(c3cccnc3)=CC[C@@H]12 | 3 |
| Cc1ccccc1C(=O)ON=C1C=C2CC[C@H]3[C@H](CC[C@]4(C)C(c5cccnc5)=CC[C@@H]34)[C@@]2(C)CC1 | 3 |
| CNCCC(=O)ON=C1C=C2CC[C@H]3[C@H](CC[C@]4(C)C(c5cccnc5)=CC[C@@H]34)[C@@]2(C)CC1 | 3 |

Request: // degree of inflammatory cell infiltration: number of rabbits graded ++ lookup, key: CC(=O)N1CCC(C(=O)ON=C2C=C3CC[C@H]4[C@H](CC[C@]5(C)C(c6cccnc6)=CC[C@@H]45)[C@@]3(C)CC2)CC1
Result: 4

Request: // degree of inflammatory cell infiltration: number of rabbits graded ++ lookup, key: CN(C)CCNC(=O)ON=C1C=C2CC[C@H]3[C@H](CC[C@]4(C)C(c5cccnc5)=CC[C@@H]34)[C@@]2(C)CC1
Result: 3

Request: // degree of inflammatory cell infiltration: number of rabbits graded ++ lookup, key: CN(C)CCN1CCC(C(=O)ON=C2C=C3CC[C@H]4[C@H](CC[C@]5(C)C(c6cccnc6)=CC[C@@H]45)[C@@]3(C)CC2)CC1
Result: 3

Request: // degree of inflammatory cell infiltration: number of rabbits graded ++ lookup, key: CN(C)C(=O)ON=C1C=C2CC[C@H]3[C@H](CC[C@]4(C)C(c5cccnc5)=CC[C@@H]34)[C@@]2(C)CC1
Result: 4

Request: // degree of inflammatory cell infiltration: number of rabbits graded ++ lookup, key: CC(C)C(=O)OCOC(=O)ON=C1C=C2CC[C@H]3[C@H](CC[C@]4(C)C(c5cccnc5)=CC[C@@H]34)[C@@]2(C)CC1
Result: 4
